ASSAYED TARGET: Calcium-dependent protein kinase 4 (Plasmodium falciparum (isolate 3D7)) (UniProt Q8IBS5)
Sequence (Q8IBS5 whole entry, looked up): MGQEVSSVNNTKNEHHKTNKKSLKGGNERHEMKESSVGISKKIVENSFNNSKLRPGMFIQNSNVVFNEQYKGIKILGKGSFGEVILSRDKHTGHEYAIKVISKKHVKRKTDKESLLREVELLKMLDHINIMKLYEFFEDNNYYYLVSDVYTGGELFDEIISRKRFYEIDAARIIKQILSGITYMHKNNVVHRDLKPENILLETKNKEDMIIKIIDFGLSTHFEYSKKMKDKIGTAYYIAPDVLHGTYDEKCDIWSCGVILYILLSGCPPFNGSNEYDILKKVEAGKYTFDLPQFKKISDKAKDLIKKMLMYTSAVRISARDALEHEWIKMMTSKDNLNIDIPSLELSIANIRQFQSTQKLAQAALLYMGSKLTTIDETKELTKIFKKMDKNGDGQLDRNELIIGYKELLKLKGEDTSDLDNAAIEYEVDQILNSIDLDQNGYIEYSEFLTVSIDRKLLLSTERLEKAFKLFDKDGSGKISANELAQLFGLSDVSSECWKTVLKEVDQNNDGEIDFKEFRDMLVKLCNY
ASSAY COMMENT: PfCDPK4 kinase inhibitors, biochemical, TCAMS library (AID 1159588)
TEST CONTEXT: recombinant PfCDPK4, Kinase-Glo ATP depletion luminescence
Results with a measured potency or affinity are listed apart. The source made the active and inactive calls. Cut-off not given; nearly all actives show IC50 up to about 0.91 µM.
EXPERIMENTAL READOUT: outcome

// below: answered compounds
COc1cc2nc(N3CCC(C(N)=O)CC3)nc(NCc3ccccc3)c2cc1OC | inactive
Cc1c(Cn2nc(Cl)c(N3CCNCC3)cc2=O)cccc1NC(=O)Nc1ccc(-c2ccccc2)cc1 | inactive
Cc1[nH]c(C)c(-c2cc3ccccc3o2)c(=O)c1Cl | inactive
O=C(NCCCN1CCC(N2CCCCC2)CC1)c1ccc2nc(N3CCCCC3)sc2c1 | inactive
COc1cc2nc(N3CCN(c4cc(C)ccc4C)CC3)nc(N)c2cc1OC | inactive

Cc1ccc(C)c(Cn2ccc3nc(N)nc(N)c32)c1 on Calcium-dependent protein kinase 4 (Plasmodium falciparum (isolate 3D7)) (UniProt Q8IBS5) gives outcome = inactive

COc1ccccc1N1CCN(c2cccc3c2nc(-c2cncc(C#N)c2)n3CCNCc2ccccc2)CC1 on Calcium-dependent protein kinase 4 (Plasmodium falciparum (isolate 3D7)) (UniProt Q8IBS5) gives outcome = inactive

CCNc1cc(C(=O)N[C@@H](Cc2cccc(F)c2)[C@H](O)CNC(C)CCCC(C)C)cc(N2CCCCS2(=O)=O)c1 (some centres undefined) on Calcium-dependent protein kinase 4 (Plasmodium falciparum (isolate 3D7)) (UniProt Q8IBS5) gives outcome = inactive

CCCN1CCC2(CC1)NC(C(=O)NCCC(C)C)Cc1c2[nH]c2cc(Cl)ccc12 (centres undefined) on Calcium-dependent protein kinase 4 (Plasmodium falciparum (isolate 3D7)) (UniProt Q8IBS5) gives outcome = inactive

CC(C)N1CCN(C(=O)c2ccc(CNCCCN3CCN(c4cccc(Cl)c4Cl)CC3)o2)CC1 on Calcium-dependent protein kinase 4 (Plasmodium falciparum (isolate 3D7)) (UniProt Q8IBS5) gives outcome = inactive

COc1ccc(Nc2cc(C)nc(NCc3ccc4c(c3)OCO4)n2)cc1 on Calcium-dependent protein kinase 4 (Plasmodium falciparum (isolate 3D7)) (UniProt Q8IBS5) gives outcome = inactive

O=C(Nc1ccc(C(F)(F)F)cc1)c1ccc(S(=O)(=O)NC2CCN(CC3CCCCC3)CC2)cc1 on Calcium-dependent protein kinase 4 (Plasmodium falciparum (isolate 3D7)) (UniProt Q8IBS5) gives outcome = inactive

CCCCCCCc1c(C)[nH]c2ccccc2c1=O on Calcium-dependent protein kinase 4 (Plasmodium falciparum (isolate 3D7)) (UniProt Q8IBS5) gives outcome = inactive

Cc1cc(O)c(CN(C)Cc2ccc3c(c2)OCO3)cc1C(C)C on Calcium-dependent protein kinase 4 (Plasmodium falciparum (isolate 3D7)) (UniProt Q8IBS5) gives outcome = inactive

CN(C)CCC1CCN(CCS(=O)(=O)c2cccc(Nc3ncc(-c4cccc(F)c4)cn3)c2)CC1 on Calcium-dependent protein kinase 4 (Plasmodium falciparum (isolate 3D7)) (UniProt Q8IBS5) gives outcome = inactive

Cc1cccc2c3c([nH]c12)C1(CCN(Cc2ccccc2)CC1)NC(C(=O)NCc1ccccc1)C3 (centres undefined) on Calcium-dependent protein kinase 4 (Plasmodium falciparum (isolate 3D7)) (UniProt Q8IBS5) gives outcome = inactive

c1cncc(CCNCc2ccc(-c3ccc(-c4nc5ccccc5[nH]4)s3)cc2)c1 on Calcium-dependent protein kinase 4 (Plasmodium falciparum (isolate 3D7)) (UniProt Q8IBS5) gives outcome = inactive

Cc1ccc(NC(=O)c2cccc(N3CCN(c4ccncc4)CC3)c2)cc1F on Calcium-dependent protein kinase 4 (Plasmodium falciparum (isolate 3D7)) (UniProt Q8IBS5) gives outcome = inactive

OC(CNC1CCCCC1)Cn1c2ccccc2c2ccccc21 (centres undefined) on Calcium-dependent protein kinase 4 (Plasmodium falciparum (isolate 3D7)) (UniProt Q8IBS5) gives outcome = inactive

CC(C)c1nc2c(N)nc(N)nc2nc1N on Calcium-dependent protein kinase 4 (Plasmodium falciparum (isolate 3D7)) (UniProt Q8IBS5) gives outcome = inactive

N#Cc1ccnc(-c2ccc(CNC3CCN(CC4Cn5c(=O)ccc6ccc(F)c4c65)CC3)cc2)c1 (centres undefined) on Calcium-dependent protein kinase 4 (Plasmodium falciparum (isolate 3D7)) (UniProt Q8IBS5) gives outcome = inactive

O=C1NC(=S)NC1=CC=Cc1ccc([N+](=O)[O-])o1 on Calcium-dependent protein kinase 4 (Plasmodium falciparum (isolate 3D7)) (UniProt Q8IBS5) gives outcome = inactive

Cc1ccc(Cn2nc(N3CCNCC3)ccc2=O)cc1NC(=O)Nc1ccc(-c2ccccc2)cc1 on Calcium-dependent protein kinase 4 (Plasmodium falciparum (isolate 3D7)) (UniProt Q8IBS5) gives outcome = inactive

COc1ccc(-c2nc(NC(=O)CS(=O)(=O)c3ccccc3)sc2C)cc1 on Calcium-dependent protein kinase 4 (Plasmodium falciparum (isolate 3D7)) (UniProt Q8IBS5) gives outcome = inactive

O=C(Nc1ccc(-c2nc3ccccc3[nH]2)cc1)c1ccc(Cl)s1 on Calcium-dependent protein kinase 4 (Plasmodium falciparum (isolate 3D7)) (UniProt Q8IBS5) gives outcome = inactive
